Values compiled from ChEMBL document CHEMBL5303573.

- settings: bacteroides thetaiotaomicron, 12 h, 2 µM
- Description: The drug is tested on Bacteroides thetaiotaomicron strain: 7330 for biotransformation. The drug concentrations were measured before and after a 12-h incubation by liquid-chromatography-coupled mass spectrometry (LC–MS)
measured.property: Bacterial Biotransformation

Example entries and their recorded answers appear below.
* COc1ccc2c(c1OC)C(=O)O[C@@H]2[C@H]1c2c(cc3c(c2OC)OCO3)CCN1C [NOSCAPINE] | Compound metabolized
* CC(C)c1nc(N(C)S(C)(=O)=O)nc(-c2ccc(F)cc2)c1/C=C/[C@@H](O)C[C@@H](O)CC(=O)[O-].CC(C)c1nc(N(C)S(C)(=O)=O)nc(-c2ccc(F)cc2)c1/C=C/[C@@H](O)C[C@@H](O)CC(=O)[O-].[Ca+2] [ROSUVASTATIN CALCIUM] | Compound NOT metabolized
* CCc1nn(CCCN2CCN(c3cccc(Cl)c3)CC2)c(=O)n1CCOc1ccccc1 [NEFAZODONE] | Compound NOT metabolized
* CN1C(=O)CC(C)(c2ccccc2)C1=O (stereo not given) [METHSUXIMIDE] | Compound NOT metabolized

Prompt: Which Bacterial Biotransformation value belongs to O=C(O)c1cc(/N=N/c2ccc(S(=O)(=O)Nc3ccccn3)cc2)ccc1O [SULFASALAZINE] ?
Completion: Compound metabolized

Prompt: Which Bacterial Biotransformation value belongs to CC(CN(C)C)CN1c2ccccc2CCc2ccccc21.O=C(O)/C=C\C(=O)O (stereo not given) [TRIMIPRAMINE MALEATE] ?
Completion: Compound NOT metabolized

Prompt: Which Bacterial Biotransformation value belongs to CN(C)C(=O)Oc1cc(OC(=O)N(C)C)cc(C(O)CNC(C)(C)C)c1 (stereo not given) [BAMBUTEROL] ?
Completion: Compound NOT metabolized

Prompt: Which Bacterial Biotransformation value belongs to CC#C[C@]1(O)CC[C@H]2[C@@H]3CCC4=CC(=O)CCC4=C3[C@@H](c3ccc(N(C)C)cc3)C[C@@]21C [MIFEPRISTONE] ?
Completion: Compound NOT metabolized

Prompt: Which Bacterial Biotransformation value belongs to CCS(=O)(=O)CCn1c([N+](=O)[O-])cnc1C [TINIDAZOLE] ?
Completion: Compound metabolized

Prompt: Which Bacterial Biotransformation value belongs to CN(CCOc1ccc(CC2SC(=O)NC2=O)cc1)c1ccccn1.O=C(O)/C=C\C(=O)O (stereo not given) [ROSIGLITAZONE MALEATE] ?
Completion: Compound NOT metabolized

Prompt: Which Bacterial Biotransformation value belongs to Cc1nc(-c2ccc(OCC(C)C)c(C#N)c2)sc1C(=O)O [FEBUXOSTAT] ?
Completion: Compound NOT metabolized
